zone of inhibition at 50 µg/mL by entry:
- System: Bacillus subtilis
- Protocol Description: Antibacterial activity against Bacillus subtilis MTCC 1789 at 50 ug/ml after 24 hrs agar diffusion method
- Format: functional
- Setup Conditions: MTCC 1789, 24 h, read-out: IZ
Readout: zone of inhibition at 50 µg/mL (mm)

> print(dat)
                                   compound   target.or.system  unit  value.observed
1  COc1ccc(C(=O)/C=C/C=C(\Cl)c2ccc(F)cc2)cc1  Bacillus subtilis    mm              15
2  COc1ccc(C(=O)/C=C/C=C(\Cl)c2ccc(Cl)cc2)c(OC)c1  Bacillus subtilis    mm              14
3  COc1ccc(C(=O)/C=C/C=C(\Cl)c2cccc(Cl)c2)cc1  Bacillus subtilis    mm              15
4  CN(C)[C@@H]1C(O)=C(C(N)=O)C(=O)[C@@]2(O)C(O)=C3C(=O)c4c(O)cccc4[C@@](C)(O)[C@H]3C[C@@H]12  Bacillus subtilis    mm              18
5  COc1ccc(C(=O)/C=C/C=C(\Cl)c2ccc(OC)cc2OC)cc1  Bacillus subtilis    mm              12
6  COc1ccc(C(=O)/C=C/C=C(\Cl)c2ccc(Br)cc2)c(OC)c1  Bacillus subtilis    mm              16
7  COc1ccc(/C(Cl)=C/C=C/C(=O)c2ccc(OC)cc2OC)cc1  Bacillus subtilis    mm              20
8  COc1ccc(C(=O)/C=C/C=C(\Cl)c2cccc(Cl)c2)c(OC)c1  Bacillus subtilis    mm              18
9  COc1ccc(C(=O)/C=C/C=C(\Cl)c2ccc(F)cc2)c(OC)c1  Bacillus subtilis    mm              10

Where do the numbers come from? From ChEMBL document CHEMBL1157556.
